melting point for assorted molecules

These recorded examples may help you get a feel for the data.
Exercise: So what does the record say about melting point for O[C@@H]1[C@H](O)CS[C@H]1n1cnc2c(NCc3cccc(I)c3)ncnc21 ?
Key: 199 to 200 °C

Exercise: Data request, read-out melting point, for CCCc1c(OC(C(=O)OCC)c2ccc(Cl)c(Cl)c2)ccc(C(C)=O)c1O (stereo not drawn)
Key: 77 to 79 °C

Exercise: Value lookup for melting point; key = c1ccc(CN2CCCC(c3ncc(-c4cnc(-c5ccccc5)nc4)[nH]3)C2)cc1 (stereo not drawn)
Key: 179 °C

More entries:
Exercise: Returns the measured melting point for the input molecule. Input: CCCCCCCCCCCCCCCCCCNC(=O)C(=O)Nc1ccc(Sc2ccc(O)cc2)cc1
Key: 163 °C

Exercise: Which measured melting point value corresponds to CN1CCC(c2c[nH]c3ccc(NS(=O)(=O)c4ccccc4)nc23)CC1 ?
Key: 148 to 150 °C

Exercise: Need melting point of CCN(CC)CCNC(=O)c1cc(Cl)c(N)cc1OCCNC(C)=O , thanks.
Key: 143 to 145 °C

----------
Measure Name: melting point

The following molecules have reported results that may help.
Exercise: Query: melting point; subject: CC(C)(C)c1nc2cc(N3CCSCC3)c([N+](=O)[O-])cc2s1
Key: 117 to 120 °C

Exercise: Recorded melting point for O=C(O)c1ccc2c(c1)CCCC2NC(=O)c1cccc(Oc2ccccc2)c1 (stereo not given) , please?
Key: 155 to 160 °C

Exercise: Bench note: what melting point did C[C@H](NC(=O)[C@@H](C)NC(=O)[C@@H](N)CC(=O)O)C1CCCC1 show?
Key: 204 to 205 °C

Exercise: Would you mind telling me what melting point value was observed for N#Cc1ccc(OCCCCCCCCCCCCOc2ccc(C#N)c(C#N)c2)cc1C#N ?
Key: 104 to 107 °C

Could you now consider this next molecule?
Exercise: Looking for the measured melting point of COC(=O)c1c2c(c3cc4c(cc3c1-c1ccc(OC)c(OC)c1)OCO4)OCOC2=O , can you help?
Key: 168 to 170 °C

----------
This section presents molecules with their documented melting point values.

Exercise: Form field: reported melting point of CC1=C(C(=O)OCCCN(C)C)C(c2ccccc2)C2=C(COC2=O)N1 (stereo not given)
Key: 112 to 115 °C

Exercise: Return reported melting point; argument: CC(C)c1ccc(S(=O)(=O)n2c(Cc3ccc(C(=O)O)c(F)c3)cc3cc(Cl)ccc32)cc1
Key: 196 °C

Exercise: Entry Oc1c(-c2ccc(F)cc2)nn2ccccc12 has what melting point?
Key: 178 to 179 °C

Exercise: Form field: reported melting point of Cc1ccc(S(=O)(=O)c2nnnn2C)cc1
Key: 110 to 111 °C

// below: melting point requested for another molecule
Exercise: Which melting point value is on record for O=C1NC(=O)C(CC#Cc2ccc(Cl)cc2)(Sc2nc3ccccc3o2)S1 (stereo not given) ?
Key: 137 to 139 °C

----------
Measured melting point values are reported for all entries that follow.

Known melting point results, listed for orientation:
Exercise: If you can, please state the reported melting point value of CC(=O)Nc1ccc2c(O)c(C(=O)NCc3ccc(Cl)cc3)cnc2c1 .
Key: > 250 °C

Exercise: Requested field: melting point. Item: CC(C)NC(=O)c1c(NC(=O)c2cc(C(F)(F)F)nn2-c2ncccc2Cl)ccc2cc[nH]c12
Key: 240 to 242 °C

Exercise: What does the record list as melting point for CC(=O)OCC1OC(n2ccc(=O)[nH]c2=O)C(Br)C1OC(C)=O (stereo not given) ?
Key: 69 to 77 °C

Exercise: Can you look up the measured melting point of Clc1cc(Cl)c2c(c1)COCO2 for me?
Key: 111 to 112 °C

Proceed to the following item.
Exercise: Form field: reported melting point of CCCCC1(CCCC)CCc2c(OCc3ccc4ccccc4n3)ccc(F)c2C1O (stereo not given)
Key: 128 to 129 °C

----------
Recorded measurements of melting point, one per entry

Below are worked cases with known answers.
Exercise: Param item = CNC(=S)OCc1nc(C(C)C)c(Sc2cc(Cl)cc(Cl)c2)n1C ; retrieve measured melting point.
Key: 119 to 121 °C

Exercise: # input compound: CCOc1cnc(-c2ccc(O)cc2)nc1 ; wanted: its melting point
Key: 202 °C

Exercise: What measured melting point goes with CC1CC(=Cc2ccccc2)c2nc3cc(N)ccc3c(=O)n21 (stereo unspecified) ?
Key: 239 to 241 °C

Exercise: Name the recorded melting point for C[C@@H](O)[C@H]1C(=O)N([Si](C)(C)C(C)(C)C)[C@@H]1[C@@H]1COC(C)(C)O1 .
Key: 80 to 90 °C

Exercise: For the compound CN1C(=O)C(=O)N(Cc2ccccc2)CC1(CCOC1CCCCO1)c1ccc(Cl)c(Cl)c1 (stereo unspecified) , what melting point is on record?
Key: 178 °C

Now for another entry.
Exercise: For CN(C(=O)CNc1nc(-c2ccccc2)ncc1[N+](=O)[O-])c1ccccc1 , what is its reported melting point?
Key: 194 to 196 °C

----------
Measure Name: melting point

Exercise: Look at this molecule and give its reported melting point. CCOC(=O)[C@H](CC(C)C)NC(=O)[C@@H]1CCCN1C(=O)OCc1ccccc1
Key: 60 to 64 °C

Exercise: Requested field: melting point. Item: C=CCN1CCN(c2cc3c(cc2F)c(=O)c(C(=O)O)cn3CC=C)CC1
Key: 186 °C

Exercise: Item CC1(C)C=C(c2cccnc2)c2cc(Br)ccc2OC1 has what recorded melting point?
Key: 116 °C

Exercise: Could you tell me which melting point is on file for CON1CCC2(CC1)NC(=O)C(c1cc(C)ccc1C)=C2O ?
Key: 176 to 177 °C

Exercise: If you can, please state the reported melting point value of COC(=O)Nc1nc2cc(C3(c4ccccc4)OCC(C)(C)CO3)ccc2[nH]1 .
Key: 224 °C

Exercise: Given the molecule CC(=O)Nc1cc(F)ccc1S(=O)(=O)CC#N , what is its reported melting point?
Key: 131 to 132 °C

Exercise: Quick one: melting point of COC(=O)CCCCNC(=O)C(CO)NS(=O)(=O)c1ccc(Cl)cc1 (racemic) ?
Key: 92 to 94 °C

Exercise: What measured melting point goes with COC(=O)C(C)(C)Cc1ccc(-c2ccc(CC(C)(C)C(=O)OC)cc2)cc1 ?
Key: 68 to 70 °C

Exercise: Using the record for CC(C)(C)OC(=O)N1CCC(c2nc(-c3ccc(-c4ccccc4)cc3)c[nH]2)CC1 , report its melting point.
Key: 120 to 122 °C

Exercise: Reported melting point, molecule CC(C)(C)C(=O)OC(COc1cccc2[nH]ccc12)CN1CCC(COc2ccccc2)CC1 (configuration not stated) : ____
Key: 103 to 105 °C

New cases:
Exercise: // lookup melting point for Cc1ccccc1Oc1cccc2c1OC(=O)C2(C)C
Key: 115 to 117 °C

Exercise: # input molecule: COC(=O)Oc1ccc(OC)cc1 ; wanted: its melting point
Key: 33 to 34 °C

----------
Below, each entry is listed alongside its reported melting point.

In the examples that follow, each entry is paired with its recorded melting point.
Exercise: Quick one: melting point for COc1ccc(CC(=O)c2ccc(OCc3ccccc3)cc2O)cc1 ?
Key: 97 to 98 °C

Exercise: Look up melting point: O=C1CCC(c2ccc3[nH]c(-c4cccc(C(F)(F)F)c4)cc3c2)=NN1
Key: 215 to 218 °C

---
Exercise: Form field: reported melting point of CC(C)N1C(=O)C(C)(C)N=C(c2ccccc2Cl)c2cc([N+](=O)[O-])ccc21
Key: 169 to 170 °C

Exercise: Could you share which melting point value was measured for c1ccc2c(c1)CC1CN(Cc3c[nH]c4ncccc34)CCN21 (stereo not drawn) ?
Key: 197 to 198 °C

Exercise: Requested field: melting point. Item: O=C(CSc1nc[nH]n1)c1ccccc1
Key: 119 to 120 °C

Exercise: Item under review: CCOC(=O)C1=C(COCCNS(=O)(=O)N2CCN(C)CC2)NC(C)=C(C(=O)OC)C1c1ccccc1Cl (stereo not drawn) . Reported melting point?
Key: 137 to 139 °C

Exercise: Which melting point is reported for this compound? CCOc1csc2ccc(C(=O)c3cnoc3C3CC3)c(SC)c12
Key: 166 to 168 °C

----------
// reported melting point per item

Exercise: Tell me the measured melting point of CN1CC(=O)N2CCC[C@H]2C1=O , please.
Key: 133 to 135 °C

Exercise: // returns reported melting point for input COc1ccc(N2CCN(c3c(C)c(C)c4c(c3C)C(N3CCc5ccccc5C3)C(C)(C)O4)CC2)cc1 (centres undefined)
Key: 144 to 145 °C

Exercise: Which melting point value belongs to Cc1cccc(NC(N)=S)n1 ?
Key: 188 to 190 °C

Exercise: May I ask what melting point has been recorded for CCOP(OCC)c1ccccc1P(c1cccc2ccccc12)c1cccc2ccccc12 ?
Key: 94 to 95 °C

Exercise: Entry COc1ccc(/C=C(\C#N)c2ccsc2)cc1OC1CCCC1 : reported melting point = ?
Key: 83 to 84 °C

Exercise: I'd like to know its melting point. The compound in question is COCCOCOc1c(C(C)(C)C)cc(-c2ccc(C#N)c(C#N)c2)cc1C(C)(C)C
Key: 130 to 131 °C

Exercise: Return reported melting point; argument: Cc1cccc(SCc2c(CCN(C)C)[nH]c3ccccc23)c1
Key: 75 to 78 °C

Exercise: Requested read-out: melting point. Entry: CC(C)(C)[C@@H](CO)NC(=O)[C@@H](CC(=O)OCc1ccccc1)n1ccc(-c2ccc(-c3ccc(C(N)=O)cc3)cc2)c1
Key: 201 to 203 °C

Exercise: Dear colleague, I am looking for the recorded melting point of the following compound: COc1ccc(Br)c(C=O)c1O
Key: 102 to 103 °C
